These data points were gathered from PubChem BioAssay AID492981.

Target: Short transient receptor potential channel 6 (Mus musculus) (UniProt Q61143)
Sequence (Q61143 whole entry, looked up): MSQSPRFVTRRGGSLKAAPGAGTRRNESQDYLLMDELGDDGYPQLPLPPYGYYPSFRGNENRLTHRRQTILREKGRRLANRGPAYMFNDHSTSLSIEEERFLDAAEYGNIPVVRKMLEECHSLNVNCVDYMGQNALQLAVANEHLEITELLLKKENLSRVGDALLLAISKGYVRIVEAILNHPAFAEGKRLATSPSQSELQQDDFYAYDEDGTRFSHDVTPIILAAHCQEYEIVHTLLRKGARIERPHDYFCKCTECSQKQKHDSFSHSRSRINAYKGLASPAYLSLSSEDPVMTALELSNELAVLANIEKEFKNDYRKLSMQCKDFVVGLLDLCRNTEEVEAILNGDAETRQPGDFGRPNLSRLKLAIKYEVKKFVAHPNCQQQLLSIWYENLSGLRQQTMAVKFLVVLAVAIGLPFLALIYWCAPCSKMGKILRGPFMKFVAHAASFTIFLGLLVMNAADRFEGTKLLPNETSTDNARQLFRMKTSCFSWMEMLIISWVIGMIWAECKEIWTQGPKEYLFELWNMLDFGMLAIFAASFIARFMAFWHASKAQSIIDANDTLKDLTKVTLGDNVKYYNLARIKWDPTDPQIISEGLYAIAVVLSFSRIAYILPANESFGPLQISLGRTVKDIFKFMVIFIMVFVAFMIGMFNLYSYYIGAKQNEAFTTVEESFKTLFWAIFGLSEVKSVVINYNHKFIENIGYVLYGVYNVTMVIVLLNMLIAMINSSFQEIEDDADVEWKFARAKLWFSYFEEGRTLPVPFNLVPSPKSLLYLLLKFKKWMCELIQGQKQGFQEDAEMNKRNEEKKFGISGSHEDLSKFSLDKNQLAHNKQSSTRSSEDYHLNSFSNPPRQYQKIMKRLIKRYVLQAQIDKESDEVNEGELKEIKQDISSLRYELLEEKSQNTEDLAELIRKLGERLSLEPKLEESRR
Assay: mouse TRPC6 channel blockers, analog testing – HEK293 cells, membrane potential dye, single concentration, selectivity assay for selective TRPC4 inhibitor project, SAR follow-up (AID 492981)
Conditions: membrane potential dye fluorescence, at 10 µM, hits give high values
Records with an inconclusive call do not appear.
quantity: inhibition (%)

a: Cc1cc(N2CCOc3ccccc32)nc2ccccc12
b: Cc1ccnc(N2CCCC2)n1
Query :: When a and b are compared, which has the higher number for inhibition? Indicate your choice by writing its label.
Result :: a

====

Biological target: Short transient receptor potential channel 6 (Mus musculus)
Assay: mouse TRPC6 channel blockers, analog testing – HEK293 cells, membrane potential dye, single concentration, selectivity assay for selective TRPC4 inhibitor project, SAR follow-up (AID 492981)
Conditions: membrane potential dye fluorescence, at 10 µM, hits give high values
Results filed as inconclusive are left out.
quantity: inhibition (%)

Cc1cc(N2CCC(C)CC2)nc2ccccc12 ... 13.6

P: Cc1ccnc(N2CCCCC2)n1
Q: COc1ccc(N2CCN(c3cc(C)c4ccccc4n3)CC2)cc1
R: Cc1cc(N2CCC(N3CCOCC3)CC2)nc2ccccc12
Query :: Order the entries by their reported inhibition, beginning at the minimum. Would you mind listing the labels in the order asked for?
Result :: P, Q, R
(P: -9.81%, Q: 15.5%, R: 44.8%)
